Parameter 'readout' = pIC50; parameter 'system' = PIM-1 kinase (Homo sapiens, UniProt P11309).
Sequence (P11309 whole entry): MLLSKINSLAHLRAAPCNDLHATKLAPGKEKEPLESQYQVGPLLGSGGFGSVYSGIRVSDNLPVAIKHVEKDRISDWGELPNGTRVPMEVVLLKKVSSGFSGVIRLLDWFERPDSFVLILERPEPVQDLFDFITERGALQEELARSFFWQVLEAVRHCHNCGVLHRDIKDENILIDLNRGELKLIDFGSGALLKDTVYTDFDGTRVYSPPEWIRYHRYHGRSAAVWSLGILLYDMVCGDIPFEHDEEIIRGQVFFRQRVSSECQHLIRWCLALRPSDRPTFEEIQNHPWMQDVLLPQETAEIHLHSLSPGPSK
pIC50: −log10 of the molar value.
measured-quantity: pIC50

- chemical-smiles: "CCOC(=O)Cn1c(-c2ccc(Cl)cc2)cc(-c2ccc(O)c(OC)c2)c(C#N)c1=O"
  study-target: "PIM-1 kinase (Homo sapiens, UniProt P11309)"
  reported: 7.19
- chemical-smiles: "COc1cc(-c2cc(-c3ccc(Cl)cc3)n(CC(=O)NN)c(=O)c2C#N)ccc1O"
  study-target: "PIM-1 kinase (Homo sapiens, UniProt P11309)"
  reported: 8.08
- chemical-smiles: "COc1cc(-c2cc(-c3ccc(Cl)cc3)n(CC(=O)n3nc(C)cc3C)c(=O)c2C#N)ccc1O"
  study-target: "PIM-1 kinase (Homo sapiens, UniProt P11309)"
  reported: 7.46
